Reported Solubility (MEK) values follow for various compounds
Test: Solubility measurement in methyl ethyl ketone (MEK)
Format: physicochemical
Conditions: concentration when the solute completely dissolved
Procedure: The solubility measurement was conducted as follows: the compound to be tested was weighed; methyl ethyl ketone (MEK) was slowly added thereto; when the solute completely dissolved, the solution was weighed; and the concentration of the test compound in the solution was determined by calculation.
Where a name gives a salt, the structure may show the parent alone.

| compound | unit.spec | Solubility (MEK) |
| --- | --- | --- |
| CN1/C(=C/C=C/C=C/C=C/C=C/C2=[N+](C)c3ccccc3C2(Cc2ccccc2)Cc2ccccc2)C(Cc2ccccc2)(Cc2ccccc2)c2ccccc21 [Example 1-1, Tetrafluoroborate Salt of Compound No. 2] | wt % | 0.16 |
| O=S(=O)(c1ccc2c(c1)[S][Cu-]1([S]2)[S]c2ccc(S(=O)(=O)N3CCOCC3)cc2[S]1)N1CCOCC1 [1-3, reference compound] | wt % | 0.20 |
| CN1/C(=C/C=C/C=C/C=C/C=C/C2=[N+](C)c3c(c4ccccc4c4ccccc34)C2(C)C)C(C)(C)c2c1c1ccccc1c1ccccc21 [Example 1-12] | wt % | 1.13 |
| CN1/C(=C/C=C/C=C/C=C/C=C/C2=[N+](C)c3ccc4ccccc4c3C23CCCCC3)C2(CCCCC2)c2c1ccc1ccccc21 | wt % | 1.46 |
| CN1/C(=C/C=C/C=C/C=C/C=C/C2=[N+](C)c3ccc4ccccc4c3C2(Cc2ccccc2)Cc2ccccc2)C(Cc2ccccc2)(Cc2ccccc2)c2c1ccc1ccccc21 [Example 1-6, Tetrafluoroborate Salt of Compound No. 4] | wt % | 1.62 |
| CN1/C(=C/C=C/C=C/C=C/C=C/C2=[N+](C)c3ccccc3C2(C)C)C(C)(C)c2ccccc21 | wt % | 0.73 |
| CN1/C(=C/C=C/C=C/C=C/C=C/C2=[N+](C)c3ccc4ccccc4c3C2(C)Cc2ccccc2)C(C)(Cc2ccccc2)c2c1ccc1ccccc21 (centres unmarked) [Example 1-3, Tetrafluoroborate Salt of Compound No. 3] | wt % | 0.97 |
| CN1/C(=C/C=C/C=C/C=C/C=C/C2=[N+](C)c3ccc4ccccc4c3C2(C)Cc2ccccc2)C(C)(Cc2ccccc2)c2c1ccc1ccccc21 (centres unmarked) [Example 1-4] | wt % | 0.98 |
| O=S(=O)(c1ccc2c(c1)[S][Cu-]1([S]2)[S]c2ccc(S(=O)(=O)N3CCOCC3)cc2[S]1)N1CCOCC1 [Example 1-8, Quencher (1-1) Salt of Compound No. 4] | wt % | 3.69 |
| CN1/C(=C/C=C/C=C/C=C/C=C/C2=[N+](C)c3ccc4ccccc4c3C2(Cc2ccccc2)Cc2ccccc2)C(Cc2ccccc2)(Cc2ccccc2)c2c1ccc1ccccc21 [Example 1-7] | wt % | 3.71 |
| CN1/C(=C/C=C/C=C/C=C/C=C/C2=[N+](C)c3ccccc3C2(Cc2ccccc2)Cc2ccccc2)C(Cc2ccccc2)(Cc2ccccc2)c2ccccc21 [Example 1-2] | wt % | 2.34 |

* * *

Experiment: Decomposition point measurement (TG/DTA)
Format: physicochemical
Conditions: temperature at which the mass started to decrease, differential thermal analysis, temperature-rise rate 10° C./minute
Description: The UV-Visible absorption spectra measurement was conducted by preparing a chloroform solution of each compound to be tested, and employing a UV-Vis-NIR spectrophotometer (“V-570”; product from JASCO Corporation). […]
Structures can show the parent of a compound that is named as a salt.
Examples of compounds with documented Decomposition Point follow.

| compound | unit.spec | Decomposition Point |
| --- | --- | --- |
| CN1/C(=C/C=C/C=C/C=C/C=C/C2=[N+](C)c3ccccc3C2(Cc2ccccc2)Cc2ccccc2)C(Cc2ccccc2)(Cc2ccccc2)c2ccccc21 [Example 1-1, Tetrafluoroborate Salt of Compound No. 2] | °C | 238.3 |
| CN1/C(=C/C=C/C=C/C=C/C=C/C2=[N+](C)c3ccccc3C2(C)C)C(C)(C)c2ccccc21 | °C | 238.4 |
| O=S(=O)(c1ccc2c(c1)[S][Cu-]1([S]2)[S]c2ccc(S(=O)(=O)N3CCOCC3)cc2[S]1)N1CCOCC1 [Example 1-5, Quencher (1-1) Salt of Compound No. 3] | °C | 249.1 |
| CN1/C(=C/C=C/C=C/C=C/C=C/C2=[N+](C)c3ccc4ccccc4c3C2(C)Cc2ccccc2)C(C)(Cc2ccccc2)c2c1ccc1ccccc21 (centres unmarked) [Example 1-3, Tetrafluoroborate Salt of Compound No. 3] | °C | 180.5 |
| O=S(=O)(c1ccc2c(c1)[S][Cu-]1([S]2)[S]c2ccc(S(=O)(=O)N3CCOCC3)cc2[S]1)N1CCOCC1 [Example 1-8, Quencher (1-1) Salt of Compound No. 4] | °C | 258.8 |
